All figures here come from paper PMC5761851.

# target system: IKKβ (Homo sapiens, UniProt O14920)
# Construct: purchased Eurofins Pharma Discovery Services (KinaseProfiler; Cerep BioPrint panel)
# Sequence (O14920 whole entry): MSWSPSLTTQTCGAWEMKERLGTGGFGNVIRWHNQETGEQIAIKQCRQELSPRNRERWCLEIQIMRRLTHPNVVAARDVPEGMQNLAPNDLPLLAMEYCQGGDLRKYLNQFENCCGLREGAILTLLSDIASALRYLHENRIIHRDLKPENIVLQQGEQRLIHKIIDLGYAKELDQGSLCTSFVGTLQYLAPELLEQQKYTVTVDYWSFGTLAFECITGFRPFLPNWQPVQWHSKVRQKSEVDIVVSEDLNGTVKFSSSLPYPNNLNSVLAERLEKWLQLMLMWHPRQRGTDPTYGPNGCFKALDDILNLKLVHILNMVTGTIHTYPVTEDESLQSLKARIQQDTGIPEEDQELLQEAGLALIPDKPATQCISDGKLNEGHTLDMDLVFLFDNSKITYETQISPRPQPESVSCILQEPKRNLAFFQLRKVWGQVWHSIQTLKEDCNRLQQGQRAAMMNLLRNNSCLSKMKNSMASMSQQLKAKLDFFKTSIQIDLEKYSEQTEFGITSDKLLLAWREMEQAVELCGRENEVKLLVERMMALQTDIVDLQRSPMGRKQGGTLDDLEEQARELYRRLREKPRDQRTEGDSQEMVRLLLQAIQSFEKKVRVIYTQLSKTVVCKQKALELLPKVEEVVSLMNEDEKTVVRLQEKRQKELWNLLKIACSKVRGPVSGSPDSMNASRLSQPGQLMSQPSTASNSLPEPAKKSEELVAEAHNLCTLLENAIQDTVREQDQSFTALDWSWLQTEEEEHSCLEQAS
# assay comment: kinase selectivity panel
# Type: biochemical
# cond: read-out: percentage of control activity (POC), IKKβ
Each entry below carries its recorded remaining activity at 10 µM.

- molecule: "Cc1ccc(C(=O)NCC2CC2)cc1-c1ccc2c(c1)NC(=O)C21CCCC1 [compound 3]"
  remaining activity at 10 µM / %: 107
- molecule: "CS(=O)(=O)N1CCN(c2ccc(Nc3ncc(C(N)=O)c(NC4CC4)n3)cc2)CC1 [compound 5]"
  remaining activity at 10 µM / %: 8
- molecule: "Cn1cc(-c2cccc(-c3nc(C(=O)NC4C5CC6CC4CC(O)(C6)C5)c(N)nc3N)c2)cn1 (centres unmarked) [compound 4]"
  remaining activity at 10 µM / %: 95
- molecule: "COc1c(NC(=O)c2ccc(C)c(-c3nnc4c(NCC(C)(C)C)nccn34)c2)cc(C(C)(C)C)cc1NS(C)(=O)=O [compound 7, reference compound]"
  remaining activity at 10 µM / %: 127
- molecule: "CC(C)(C)N1CCC(c2cc(-c3ccc(F)cc3Cl)c3cc[n+]([O-])c(-c4c(Cl)cccc4Cl)c3n2)CC1 [compound 2]"
  remaining activity at 10 µM / %: 102

====

# target system: Lyn (Homo sapiens, UniProt P07948)
# Construct: purchased Eurofins Pharma Discovery Services (KinaseProfiler; Cerep BioPrint panel)
# Sequence (P07948 whole entry): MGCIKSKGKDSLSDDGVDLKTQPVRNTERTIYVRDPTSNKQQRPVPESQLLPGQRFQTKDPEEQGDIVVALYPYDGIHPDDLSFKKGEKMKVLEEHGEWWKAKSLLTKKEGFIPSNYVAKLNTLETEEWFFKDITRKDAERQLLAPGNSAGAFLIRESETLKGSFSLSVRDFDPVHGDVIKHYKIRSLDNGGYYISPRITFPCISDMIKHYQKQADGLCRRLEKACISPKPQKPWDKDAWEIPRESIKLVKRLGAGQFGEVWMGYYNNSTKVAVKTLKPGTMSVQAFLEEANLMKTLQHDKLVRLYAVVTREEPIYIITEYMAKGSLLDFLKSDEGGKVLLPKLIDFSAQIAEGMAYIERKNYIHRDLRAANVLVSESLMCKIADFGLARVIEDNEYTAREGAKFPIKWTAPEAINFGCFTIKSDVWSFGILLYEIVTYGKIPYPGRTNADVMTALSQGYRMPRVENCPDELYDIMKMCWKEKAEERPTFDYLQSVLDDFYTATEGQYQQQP
# assay comment: kinase selectivity panel
# Type: biochemical
# cond: read-out: percentage of control activity (POC), Lyn
Each entry below carries its recorded remaining activity at 10 µM.

- compound: "CC(C)(C)N1CCC(c2cc(-c3ccc(F)cc3Cl)c3cc[n+]([O-])c(-c4c(Cl)cccc4Cl)c3n2)CC1"
  remaining activity at 10 µM: "104%"
- compound: "Cn1cc(-c2cccc(-c3nc(C(=O)NC4C5CC6CC4CC(O)(C6)C5)c(N)nc3N)c2)cn1 (centres unmarked)"
  remaining activity at 10 µM: "66%"
- compound: "COc1c(NC(=O)c2ccc(C)c(-c3nnc4c(NCC(C)(C)C)nccn34)c2)cc(C(C)(C)C)cc1NS(C)(=O)=O [compound 7, reference compound]"
  remaining activity at 10 µM: "66%"
- compound: "CS(=O)(=O)N1CCN(c2ccc(Nc3ncc(C(N)=O)c(NC4CC4)n3)cc2)CC1"
  remaining activity at 10 µM: "5%"
- compound: "Cc1ccc(C(=O)NCC2CC2)cc1-c1ccc2c(c1)NC(=O)C21CCCC1"
  remaining activity at 10 µM: "101%"

====

# target system: UniProt:P43405
# assay comment: Enzymatic Syk kinase activity assay
# Assay type: biochemical
# cond: geometric mean; read-out: Activity in reference biochemical assay (IC50, μM) (95% CI) Syk
observable: log10 of IC50 (log10 of the value in µM)

- compound: "Nc1ncc(-c2ccc3[nH]ncc3c2)nc1C(=O)NC1C2CC3CC1CC(O)(C3)C2 (centres unmarked) [compound 13]"
  value reported: -0.48
- compound: "Nc1ncc(-c2cccc(-c3cccnc3)c2)nc1C(=O)NC1C2CC3CC1CC(O)(C3)C2 (centres unmarked) [compound 11]"
  value reported: -1.18
- compound: "Cn1cc(-c2cccc(-c3nc(C(=O)NC4C5CC6CC4CC(O)(C6)C5)c(N)nc3N)c2)cn1 (centres unmarked) [compound 4]"
  value reported: 1.07
- compound: "Cn1cc(-c2cccc(-c3cnc(N)c(C(=O)NC4C5CC6CC4CC(O)(C6)C5)n3)c2)cn1 (centres unmarked) [compound 12]"
  value reported: -1.66
- compound: "COc1cc(-c2cnn(C)c2)cc(-c2cnc(N)c(C(=O)N[C@@H]3[C@@H]4C[C@@H]5C[C@H]3C[C@@](O)(C5)C4)n2)c1 [compound 10]"
  value reported: -1.48
